Origin of the recorded values: ChEMBL document CHEMBL1158602

Measured pIC50 on UniProt P34972 follows.
Sequence (P34972 whole entry): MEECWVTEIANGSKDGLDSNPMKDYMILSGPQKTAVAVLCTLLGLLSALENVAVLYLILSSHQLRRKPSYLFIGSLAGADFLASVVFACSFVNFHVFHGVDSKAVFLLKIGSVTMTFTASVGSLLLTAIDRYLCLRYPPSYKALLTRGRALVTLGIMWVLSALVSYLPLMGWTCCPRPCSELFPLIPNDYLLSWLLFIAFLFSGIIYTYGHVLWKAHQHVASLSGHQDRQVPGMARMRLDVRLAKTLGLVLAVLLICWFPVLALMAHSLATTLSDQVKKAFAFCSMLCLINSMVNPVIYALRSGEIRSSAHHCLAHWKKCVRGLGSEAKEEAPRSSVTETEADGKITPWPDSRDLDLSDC
Remember, pIC50 is on a log scale: it is -log10 of the molar concentration.

{"columns": ["compound", "target", "number"],
 "data": [
  ["CC1(C)CC(O)c2cc(-c3ccc(Cl)cc3)c(-c3ccc(Cl)cc3Cl)nc2O1 (racemic)", "UniProt P34972", 5.31],
  ["C[C@@H](O)C(=O)NC1CC2(CCCCC2)Oc2nc(-c3ccccc3Cl)c(-c3ccc(Cl)cc3)cc21 (single isomer, unassigned; enantiomer 1)", "UniProt P34972", 5.44],
  ["CC1(C)CC(NC(=O)C(C)(C)CO)c2cc(-c3ccc(Cl)cc3)c(-c3ccc(Cl)cc3Cl)nc2O1 (single isomer, unassigned; enantiomer 2)", "UniProt P34972", 5.12]
]}

Req: Give recorded pIC50. CC1(C)CC(NC(=O)CCO)c2cc(-c3ccc(Cl)cc3)c(-c3ccc(Cl)cc3Cl)nc2O1 (single isomer, unassigned; enantiomer 1)
Resp: 5.61

Req: Give recorded pIC50. O=C1CC2(CCCCC2)Oc2nc(-c3ccccc3Cl)c(-c3ccc(Cl)cc3)cc21
Resp: 5.08

Req: Give recorded pIC50. CC1(C)CC(NC(=O)CCO)c2cc(-c3ccc(Cl)cc3)c(-c3ccc(Cl)cc3Cl)nc2O1 (single isomer, unassigned; enantiomer 2)
Resp: 5.27

Req: Give recorded pIC50. CC(C)(CO)NC(=O)C1CC(C)(C)Oc2nc(-c3ccc(Cl)cc3Cl)c(-c3ccc(Cl)cc3)cc21 (single isomer, unassigned; enantiomer 1)
Resp: 5.29
